Source of measurements: ChEMBL document CHEMBL2150912

Give IC50 for every item shown.
Number only, in µM; omit the unit.

Query string: What measured IC50 is associated with CC(C)(C)C1=C(C(=O)N2CCNC(=O)C2)SC2=N[C@@H](c3ccc(Cl)cc3)[C@@H](c3ccc(Cl)cc3)N21 (racemic) on E3 ubiquitin-protein ligase Mdm2 (Homo sapiens)?
Result string: 3

Query string: What measured IC50 is associated with COCC1=C(C(=O)N2CCNC(=O)C2)SC2=N[C@@H](c3ccc(Cl)cc3)[C@@H](c3ccc(Cl)cc3)N21 (racemic) on E3 ubiquitin-protein ligase Mdm2 (Homo sapiens)?
Result string: 7.1

Query string: What measured IC50 is associated with CC(=O)N1CCN(C(=O)C2=C(C(C)C)N3C(=N[C@@H](c4ccc(Cl)cc4)[C@H]3c3ccc(Cl)cc3)S2)CC1 (racemic) on E3 ubiquitin-protein ligase Mdm2 (Homo sapiens)?
Result string: 0.84

Query string: What measured IC50 is associated with CC1=C(C(=O)N2CCNC(=O)C2)SC2=N[C@@H](c3ccc(Cl)cc3)[C@@H](c3ccc(Cl)cc3)N21 (racemic) on E3 ubiquitin-protein ligase Mdm2 (Homo sapiens)?
Result string: 2.7

Query string: What measured IC50 is associated with CCCC1=C(C(=O)N2CCNC(=O)C2)SC2=N[C@@H](c3ccc(Cl)cc3)[C@@H](c3ccc(Cl)cc3)N21 (racemic) on E3 ubiquitin-protein ligase Mdm2 (Homo sapiens)?
Result string: 3.1

Query string: What measured IC50 is associated with CC(C)C1=C(C(=O)N2CCC(C(=O)N(C)C)CC2)SC2=N[C@@H](c3ccc(Cl)cc3)[C@@H](c3ccc(Cl)cc3)N21 (racemic) on E3 ubiquitin-protein ligase Mdm2 (Homo sapiens)?
Result string: 4.4

Query string: What measured IC50 is associated with CC(C)C1=C(C(=O)N2CCOCC2)SC2=N[C@@H](c3ccc(Cl)cc3)[C@@H](c3ccc(Cl)cc3)N21 (racemic) on E3 ubiquitin-protein ligase Mdm2 (Homo sapiens)?
Result string: 0.34
